RP-LC retention time overview
# Assay Name: gradient 5% acetonitrile 3 min, to 50% in 2 min, to 85% in 15 min, held 3 min, 100 µL/min
# Reported Conditions: column: Zorbax Extend-C18 2.1 x 50 mm; eluents: water / acetonitrile, 0.1% formic acid
Numeric answer only, unit s assumed.

// worked examples, RP-LC retention time included
- CCNC(=O)N1CC(Oc2cccc(-c3nc(C)no3)c2)C1: 705
- CCCNC(=O)c1cn(-c2cc(-c3nc(C(C)(C)C)no3)ccn2)cn1: 934
- Cc1nc(NS(=O)(=O)CCOc2ccc(F)cc2)sc1C: 710
- Cc1cc(N2CCOCC2)n2nc(CN3CCN(c4cccc(Cl)c4)CC3)nc2n1: 656
- O=C(Cc1ccccc1F)N1CCCn2nc(-c3cccs3)cc2C1: 875
- O=C(NC1CCN(c2cc(-c3ccccc3)[nH]n2)C1)c1cccc(F)c1 (centres undefined): 717
- CCn1cc(-c2ccc(OC)cc2)cc1C(=O)N(C)C: 842
- CCN1CCCC1CN(CC(=O)N1CCNCC1)S(=O)(=O)c1cc(C)ccc1C (centres undefined): 581

Moving on to another compound below.
stdin: Value lookup for RP-LC retention time; key = COc1ncc(C(=O)NC(C)c2ccc(F)cc2)cn1 (centres undefined)
stdout: 756

* * *

# Assay Name: gradient 5% acetonitrile 3 min, to 50% in 2 min, to 85% in 15 min, held 3 min, 100 µL/min
# Reported Conditions: column: Zorbax Extend-C18 2.1 x 50 mm; eluents: water / acetonitrile, 0.1% formic acid
Endpoint: RP-LC retention time
Answers without a unit are incomplete; give the number and then its unit.

stdin: Value lookup for RP-LC retention time; key = Cc1ccc(NC(=O)N2CCC(CN3CCCC(C)C3)CC2)cc1 (stereo not drawn)
stdout: 613 s

stdin: # iterate: O=C(Cn1c(=O)oc2ccccc21)N1CCN(S(=O)(=O)C2CC2)CC1
stdout: 670 s

stdin: # iterate: Cc1[nH]c(-c2ccc(Cl)cc2)cc1C(=O)NC1CCCCC1
stdout: 990 s

* * *

RP-LC retention time overview
# Assay Name: gradient 5% acetonitrile 3 min, to 50% in 2 min, to 85% in 15 min, held 3 min, 100 µL/min
# Reported Conditions: column: Zorbax Extend-C18 2.1 x 50 mm; eluents: water / acetonitrile, 0.1% formic acid
Numeric answer only, unit s assumed.

// worked examples, RP-LC retention time included
• Cc1ccc2c(c1)OCC(=O)N2Cc1nc(-c2ccc(F)cc2)no1 = 970
• CCOC(=O)Nc1ccc(S(=O)(=O)N2CCC(c3nc4ccccc4[nH]3)CC2)cc1 = 582
• O=C(NCCCN1CCCC1=O)C1=C2CCCN2c2ccc(F)cc2S1(=O)=O = 650
• Cc1nc(-c2cc(S(=O)(=O)NCc3cc(F)cc(F)c3)c(C)s2)cs1 = 994
• CC1(C(=O)NC2CCCC2)Cn2c(ccc2-c2ccco2)C(=O)N1Cc1cccnc1 (stereo not drawn) = 657
• CCC(=O)n1nc(-c2ccc(C)c(C)c2)nc1N = 923
• Cc1nc2c(nc1C)C(=O)c1ccccc1C2=O = 655
• COc1cc(NS(=O)(=O)c2c[nH]c3ncccc23)cc(OC)c1 = 707

stdin: Value lookup for RP-LC retention time; key = COC(=O)C1CCC(=O)N1C(c1ccc(OC)cc1)c1cc(OC)c(OC)c(OC)c1 (stereo not drawn)
stdout: 753

stdin: # iterate: CC(=O)c1ccc(NC(=O)COc2cc(C)nc(N3CCCCCC3)n2)cc1
stdout: 642

stdin: # iterate: CSc1ccc(CNC(=O)C2CCCN(c3nc4c(s3)c(C)nn4-c3ccc(F)cc3)C2)cc1 (stereo not drawn)
stdout: 1190

Cited source for all entries: the METLIN SMRT retention time set (Domingo-Almenara et al. 2019)
